Target: renal dehydropeptidase I (Sus scrofa)
Construct: isolated from hog kidneys; from tissue; host or cells: hog kidney
Sequence (P22412 17-409): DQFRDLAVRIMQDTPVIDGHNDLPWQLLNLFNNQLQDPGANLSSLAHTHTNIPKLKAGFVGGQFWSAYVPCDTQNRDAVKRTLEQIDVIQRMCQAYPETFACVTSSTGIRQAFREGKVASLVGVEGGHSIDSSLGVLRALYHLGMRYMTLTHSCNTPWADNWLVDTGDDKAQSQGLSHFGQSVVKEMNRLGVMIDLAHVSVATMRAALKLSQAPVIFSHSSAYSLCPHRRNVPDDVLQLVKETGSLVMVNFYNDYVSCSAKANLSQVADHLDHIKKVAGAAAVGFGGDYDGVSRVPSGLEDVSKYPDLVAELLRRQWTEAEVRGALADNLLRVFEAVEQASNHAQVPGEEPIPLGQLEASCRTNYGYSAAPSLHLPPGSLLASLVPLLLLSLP
Experiment: in vitro screen: inhibition of hydrolysis of glycyldehydrophenylalanine (GDP) by solubilized renal dipeptidase from hog kidneys (renal dehydropeptidase I inhibition)
Format: biochemical
Settings: Table II, structure I (saturated); GDP 0.05 mM, 50 mM MOPS pH 7.1, 37° C., 275 nm
Description: This measured the ability of compounds to inhibit hydrolysis of glycyldehydrophenylalanine (GDP) by a solubilized preparation of […] isolated from hog kidneys. […] Incubation is continued for 10 minutes, at 37° C. and hydroylsis of GDP is measured by the change in optical density with time at 275 nm. […]
pKi: −log10 of the molar value.

{"molecule": "CCCCC(CP(=O)(O)C(N)CC)C(=O)O (racemic)", "testedSystem": "renal dehydropeptidase I (Sus scrofa)", "pKi": 8.64}
{"molecule": "CCCCCCC(CP(=O)(O)C(N)CC1CCCCC1)C(=O)O (stereo not drawn)", "testedSystem": "renal dehydropeptidase I (Sus scrofa)", "pKi": 8.80}
{"molecule": "CCCCC(CP(=O)(O)C(N)CC(C)C)C(=O)O (stereo not drawn)", "testedSystem": "renal dehydropeptidase I (Sus scrofa)", "pKi": 8.62}
{"molecule": "CCCCCCC(CP(=O)(O)C(N)CCCCC)C(=O)O (racemic)", "testedSystem": "renal dehydropeptidase I (Sus scrofa)", "pKi": 8.10}
{"molecule": "CCC(N)P(=O)(O)CC(CCc1ccccc1)C(=O)O (racemic)", "testedSystem": "renal dehydropeptidase I (Sus scrofa)", "pKi": 8.17}
{"molecule": "N[C@@H](CC1CCCCC1)P(=O)(O)CC(CC1CCCCC1)C(=O)O (stereo partly drawn)", "testedSystem": "renal dehydropeptidase I (Sus scrofa)", "pKi": 9.30}
{"molecule": "CCCCCC(N)P(=O)(O)CC(CCC1CCCC1)C(=O)O (racemic)", "testedSystem": "renal dehydropeptidase I (Sus scrofa)", "pKi": 8.15}
{"molecule": "N[C@@H](CC1CCCCC1)P(=O)(O)CC(CCC1CCCC1)C(=O)O (stereo partly drawn)", "testedSystem": "renal dehydropeptidase I (Sus scrofa)", "pKi": 8.57}
{"molecule": "CCCCC(CP(=O)(O)C(N)Cc1ccccc1)C(=O)O (stereo not drawn)", "testedSystem": "renal dehydropeptidase I (Sus scrofa)", "pKi": 7.08}
{"molecule": "CCC(CP(=O)(O)C(N)CC)C(=O)O (racemic)", "testedSystem": "renal dehydropeptidase I (Sus scrofa)", "pKi": 8.89}
{"molecule": "CCCCCC(N)P(=O)(O)CC(CC1CCCCC1)C(=O)O (stereo not drawn)", "testedSystem": "renal dehydropeptidase I (Sus scrofa)", "pKi": 8.01}
{"molecule": "N[C@@H](CC1CCCCC1)P(=O)(O)CC(CCCc1ccncc1)C(=O)O (stereo partly drawn)", "testedSystem": "renal dehydropeptidase I (Sus scrofa)", "pKi": 8.40}
